// provenance: patent US8486996B2

System: tumor cells
Measurement protocol: MTS proliferation assay (72 h read-out)
Format: cell-based
Settings: HT1080 cells, read-out: MTS proliferation assay IC50, HT1080
Observable: IC50

Take a look at these entries with their results.
COc1ccc2oc(C(=O)c3cccnc3N3CC=CCC3)cc2c1 ... < 0.01 µM
CCOc1ccccc1C(=O)c1oc2ccc([N+](=O)[O-])cc2c1N ... 0.01 to 0.1 µM
CCOc1ccc(F)cc1C(=O)c1cc2cc(CN(CC)CC)ccc2o1 ... > 1 µM
CN(C)CCOc1ccccc1C(=O)c1oc2ccc(Cl)cc2c1N ... > 1 µM

Value lookup for IC50; key = `Nc1c(C(=O)c2cccnc2N2CCCC2)oc2ccc(Cl)cc12`
0.1 to 1 µM

Same thing, different compound: `O=C(c1cc2cc(OCc3ccccc3)ccc2o1)c1cc(F)ccc1N1CC=CCC1`
> 1 µM

Same thing, different compound: `C#CCOc1ccc(OC)cc1C(=O)c1oc2ccc(Cl)cc2c1N`
0.1 to 1 µM

Same thing, different compound: `O=C(c1cc2cc(O)ccc2o1)c1cc(F)ccc1N1CCOCC1`
0.01 to 0.1 µM

Same thing, different compound: `CCOc1ccc(F)cc1C(=O)c1cc2cc(OCc3ccccc3)ccc2o1`
> 1 µM

Same thing, different compound: `COCCOc1ccccc1C(=O)c1oc2ccc(Cl)cc2c1N`
> 1 µM

---

Measurement protocol: MTS proliferation assay (72 h read-out)
Format: cell-based
Settings: MRC5 cells
Observable: IC50

Take a look at these entries with their results.
COc1ccc2oc(C(=O)c3cc(F)ccc3N3CCCCC3C)cc2c1 (stereo not drawn) [Example 97] ... 100 to 1000 nM
COc1ccc2oc(C(=O)c3cccnc3N3CCCCC3C)cc2c1 (stereo not drawn) [Example 89] ... 100 to 1000 nM
CCOc1ccc(S(=O)(=O)N(C)C)cc1C(=O)c1oc2ccc(Cl)cc2c1N [Example 46] ... > 1000 nM
CCOc1ccc(-n2cccc2)cc1C(=O)c1oc2ccc(Cl)cc2c1N [Example 22] ... 100 to 1000 nM
CCOc1ccc(F)cc1C(=O)c1cc2cc(OCOC)ccc2o1 [Example 69] ... 100 to 1000 nM

Value lookup for IC50; key = CCOc1ccc(F)cc1C(=O)c1oc2ccc(OC)cc2c1NS(C)(=O)=O [Example 54]
10 to 100 nM

Same thing, different compound: CCN(CC)c1ncccc1C(=O)c1oc2ccc(Cl)cc2c1N [Example 81]
100 to 1000 nM

Same thing, different compound: COc1ccccc1C(=O)c1oc2ccc(Cl)cc2c1N [Ref B, reference compound]
100 to 1000 nM

Same thing, different compound: CCOc1ccc(F)cc1C(=O)c1cc2cc(Oc3ccccn3)ccc2o1 [Example 73]
100 to 1000 nM

---

System: tumor cells
Measurement protocol: Mitochondrial membrane potential, JC-1 (read-out 48 h)
Type: cell-based
Settings: Jily cells, JC-1, 48 h; read-out: Mitochondrial membrane potential (read-out 48 h) Jily
Observable: EC50

Take a look at these entries with their results.
CCOc1ccc(F)cc1C(=O)c1cc2cc(OC(C)C)ccc2o1 ... 100 to 1000 nM
COc1ccccc1C(=O)c1oc2ccc(Cl)cc2c1N [Ref B, reference compound] ... 100 to 1000 nM
O=C(c1cc2cc(O)ccc2o1)c1cc(F)ccc1N1CCOCC1 ... 10 to 100 nM
CCN(CC)c1ncccc1C(=O)c1oc2ccc(Cl)cc2c1N ... 100 to 1000 nM

Now let's try a different one.
Value lookup for EC50; key = `CCOc1ccccc1C(=O)c1oc2ccccc2c1N`
10 to 100 nM

---

Listing of entries alongside the reported IC50.
System: tumor cells
Measurement protocol: MTS proliferation assay (72 h read-out)
Type: cell-based
Settings: HT1080 cells, read-out: MTS proliferation assay IC50, HT1080

Take a look at these entries with their results.
Nc1cnc2sc(C(=O)c3cc(F)ccc3N3CCOCC3)c(N)c2c1 ... 100 to 1000 nM
CCNc1ncccc1C(=O)c1oc2ccc(Cl)cc2c1N ... > 1000 nM
CCOc1ccc2oc(C(=O)c3cc(F)ccc3N3CCOCC3)cc2c1 ... 10 to 100 nM
CN1CCN(c2ncccc2C(=O)c2oc3ccc(Cl)cc3c2N)CC1 ... > 1000 nM

Now let's try a different one.
Value lookup for IC50; key = `COc1ccc2oc(C(=O)c3cc(F)ccc3N3CC=CCC3)cc2c1`
10 to 100 nM

---

Test system: tumor cells
Measurement protocol: Mitochondrial membrane potential, JC-1 (read-out 48 h)
Format: cell-based
Settings: Homo sapiens; Jurkat cells, JC-1, 48 h; read-out: Mitochondrial membrane potential (read-out 48 h) Jurkat
pEC50: −log10 of the molar value.
Observable: pEC50

COc1ccc(OC(C)C)c(C(=O)c2oc3ccc(Cl)cc3c2N)c1 ... 7.00 to 8.00

Now let's try a different one.
Value lookup for pEC50; key = `CCOc1ccc(F)cc1C(=O)c1oc2ccc(Cl)cc2c1N`
> 8.00

---

Listing of entries alongside the reported pIC50.
Measurement protocol: MTS proliferation assay (72 h read-out)
Assay type: cell-based
Settings: MRC5 cells
Method: B) MTS Proliferation Assay The assay is performed in 96 well tissue culture plates. The cells (range: 1.5*10^3-10^4) are seeded out in 80 μl complete medium 24 h prior to compound treatment. The test compounds are added in 20 μl complete medium containing max 5% DMSO. The final compound concentrations in the assays are in the range of 0.001 μM-10 μM. […] Subsequently, the plates are shortly shaked and absorption measured with a microplate-reader at 492 nm. […]
pIC50: −log10 of the molar value.

Take a look at these entries with their results.
COc1ccc2oc(C(=O)c3cccnc3N3CC=CCC3)cc2c1 ... > 8.00
CCOc1ccccc1C(=O)c1oc2ccccc2c1N ... 6.00 to 7.00
COc1ccc2oc(C(=O)c3cc(F)ccc3N3CC=CCC3)cc2c1 ... > 8.00
CCOc1ccc(F)cc1C(=O)c1cc2cc(OCc3ccccc3)ccc2o1 ... < 6.00
CCOc1ccc(F)cc1C(=O)c1oc2ccc(C)cc2c1N ... > 8.00

Now let's try a different one.
Value lookup for pIC50; key = `COc1ccc2oc(C(=O)c3ccccc3OCC(F)(F)F)c(N)c2c1`
6.00 to 7.00

---

Test system: tumor cells
Measurement protocol: MTS proliferation assay (72 h read-out)
Assay type: cell-based
Settings: HT1080 cells, read-out: MTS proliferation assay IC50, HT1080
pIC50: −log10 of the molar value.
Observable: pIC50

Take a look at these entries with their results.
Nc1c(C(=O)c2cccnc2N2CCCCC2)oc2ccc(Cl)cc12 ... > 8.00
CCCOc1ccc(F)cc1C(=O)c1sc2ncc(N)cc2c1N ... 6.00 to 7.00
COc1ccc(OC)c(C(=O)c2oc3ccc(Cl)cc3c2O)c1 [Ref C, reference compound] ... < 6.00
CC1CN(c2ncccc2C(=O)c2oc3ccc(Cl)cc3c2N)CC(C)O1 (stereo not drawn) ... 7.00 to 8.00
COc1ccc2oc(C(=O)c3cc(F)ccc3-n3ccnc3)cc2c1 ... < 6.00
C=CCOc1ccc2oc(C(=O)c3cc(F)ccc3OCC)cc2c1 ... 6.00 to 7.00

Value lookup for pIC50; key = CC1CCCN(c2ccc(F)cc2C(=O)c2oc3ccc(Cl)cc3c2N)C1 (stereo not drawn)
6.00 to 7.00

Same thing, different compound: `CCOc1ncccc1C(=O)c1oc2ccc(Cl)cc2c1N`
> 8.00

Same thing, different compound: `CCN(C)c1ncccc1C(=O)c1oc2ccc(Cl)cc2c1N`
6.00 to 7.00

---

Tested on: tumor cells
Measurement protocol: Mitochondrial membrane potential, JC-1 (read-out 48 h)
Format: cell-based
Settings: Jily cells, JC-1, 48 h; read-out: Mitochondrial membrane potential (read-out 48 h) Jily
Listing of entries alongside the reported EC50.

CCOc1ccc(F)cc1C(=O)c1cc2cc(OCOC)ccc2o1 [Example 69] ... 100 to 1000 nM

Value lookup for EC50; key = COc1ccc2oc(C(=O)c3cc(F)ccc3N3CCCC(C)C3)cc2c1 (centres unmarked) [Example 99]
100 to 1000 nM

Same thing, different compound: CCOc1ccccc1C(=O)c1sc2ncccc2c1N [Example 114]
> 1000 nM

Same thing, different compound: CCOc1ccc(F)cc1C(=O)c1cc2cc(OC(C)=O)ccc2o1 [Example 65]
10 to 100 nM

Same thing, different compound: CCOc1ccc(F)cc1C(=O)c1oc2ccc(OC)cc2c1NS(=O)(=O)N(C)C [Example 50]
> 1000 nM

---

Listing of entries alongside the reported pIC50.
System: tumor cells
Measurement protocol: MTS proliferation assay (72 h read-out)
Assay type: cell-based
Settings: HT1080 cells, read-out: MTS proliferation assay IC50, HT1080
pIC50: −log10 of the molar value.

Take a look at these entries with their results.
Nc1c(C(=O)c2cc(F)ccc2N2CCOCC2)sc2ncccc12 ... < 6.00
COc1ccc2oc(C(=O)c3cccnc3N3CCCCC3)cc2c1 [Example 92] ... < 6.00
Nc1c(C(=O)c2cccnc2N2CCC(O)CC2)oc2ccc(Cl)cc12 ... < 6.00
CCOc1ccc(-n2cccc2)cc1C(=O)c1oc2ccc(Cl)cc2c1N ... 6.00 to 7.00
CCOc1ccc(F)cc1C(=O)c1oc2ccccc2c1N ... 7.00 to 8.00
COc1ccc2oc(C(=O)c3cc(F)ccc3N3CCCC(C)C3)cc2c1 (stereo not drawn) ... 6.00 to 7.00
CCOc1ccc(F)cc1C(=O)c1oc2ccc(OC)cc2c1NC(=O)OC ... 7.00 to 8.00
CCCOc1ccccc1C(=O)c1sc2nc(C)c(C)cc2c1N ... 7.00 to 8.00

Now let's try a different one.
Value lookup for pIC50; key = `CCOc1ccc(S(=O)(=O)N(C)C)cc1C(=O)c1oc2ccc(Cl)cc2c1N`
< 6.00
